# Assay System: T1, Cynomolgus Monkey VSIG4-L-His (cynomolgus monkey)
# T1 construct: ECD with His tag; also called cyVSIG4-L; cyno VSIG4-L-His
# T1 chain: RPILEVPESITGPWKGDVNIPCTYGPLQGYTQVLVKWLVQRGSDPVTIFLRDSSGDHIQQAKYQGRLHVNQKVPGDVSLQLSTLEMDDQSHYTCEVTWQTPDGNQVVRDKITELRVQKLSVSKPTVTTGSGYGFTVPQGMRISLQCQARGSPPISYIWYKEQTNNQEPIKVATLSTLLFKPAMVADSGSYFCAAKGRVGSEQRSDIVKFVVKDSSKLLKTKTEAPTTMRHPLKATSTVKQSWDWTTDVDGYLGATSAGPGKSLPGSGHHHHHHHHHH
# Protocol Text: BLI, IgG on AHC sensor, antigen 100 nM
Entries annotated with measured KD relative to parental chimera

{"Binder": "h14D12.E humanized IgG4 (S228P) kappa (antibody, V domains shown) VH: QIQLVQSGSELKKPGASVKVSCKASGYTFTNYGMNWVRQAPGQGLEWMGLINTYTGEPTYADGFTGRFVFSLDTSVSTAYLQISSLKAEDTAVYYCARERIYGYLHYFDYWGQGTTVTVSS VL: DVQMTQSPSSLSASVGDRVTITCRASQSVDYDGDSYMNWYQQKPGKAPKLLIYAASNLESGVPSRFSGSGSGTDFTLTISSLQPEDFATYYCQQSNEDPRTFGGGTKLEIKR", "KD relative to parental chimera": "0.9 fold"}
{"Binder": "h14C05.H humanized IgG4 (S228P) kappa (antibody, V domains shown) VH: QVQLVQSGAEVKKPGASVKVSCKASGYTFTNYGMNWVRQAPGQGLEWMGSINTYTGEATYAQKFQGRVTMTLDTSTSTVYMELSSLRSEDTAVYYCARGDYYGRGTWFAYWGQGTLVTVSS VL: ETQVTQSPSSLSASVGDRVTITCRASQDVSTAVAWYQQKPGKAPKLLIYSASYRYPGVPSRFSGSGSGTDFTLTISSLQPEDFATYYCQQDYSSPWTFGGGTKLEIKR", "KD relative to parental chimera": "0.9 fold"}
